# TARGET: Adenosine receptor A3 (Homo sapiens, UniProt P0DMS8)
# Sequence (P0DMS8 whole entry): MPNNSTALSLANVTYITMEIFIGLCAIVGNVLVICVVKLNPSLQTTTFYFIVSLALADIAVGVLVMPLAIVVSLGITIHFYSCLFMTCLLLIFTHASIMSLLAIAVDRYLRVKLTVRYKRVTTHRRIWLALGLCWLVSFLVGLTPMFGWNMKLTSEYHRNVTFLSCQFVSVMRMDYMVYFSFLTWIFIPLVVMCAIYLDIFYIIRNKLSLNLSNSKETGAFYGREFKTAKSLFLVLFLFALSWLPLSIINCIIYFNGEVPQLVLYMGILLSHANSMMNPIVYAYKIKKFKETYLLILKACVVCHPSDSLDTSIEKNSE
# RUN DESCRIPTION: Activity Assay: Compounds (Adenosine Receptor modulators) and activity assay.
Reported IC50 values for a set of molecules

>>> test_result("C[C@H](Nc1nc(C(=O)NCCO)c2sccc2n1)c1cccnc1")
"> 0.5 µM"

IC50 lookup needed for C[C@H](Nc1nc(C(=O)N2CC[C@@H](NC(=O)OC(C)(C)C)C2)c2sccc2n1)c1ccccn1 , thanks.
> 0.5 µM

====

Reported pIC50 values for a set of molecules
Target sequence: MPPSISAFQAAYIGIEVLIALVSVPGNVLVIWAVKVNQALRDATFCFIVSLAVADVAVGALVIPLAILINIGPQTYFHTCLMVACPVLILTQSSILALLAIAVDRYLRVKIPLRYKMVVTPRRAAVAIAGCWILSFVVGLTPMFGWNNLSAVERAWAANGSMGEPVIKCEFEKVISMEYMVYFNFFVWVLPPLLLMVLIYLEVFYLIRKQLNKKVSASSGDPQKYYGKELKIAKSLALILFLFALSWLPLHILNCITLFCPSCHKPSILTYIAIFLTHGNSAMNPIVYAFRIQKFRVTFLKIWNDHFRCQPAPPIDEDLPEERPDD
pIC50: −log10 of the molar value.

Look over these answered cases.
>>> test_result("C[C@H](Nc1nc(C(=O)N2CC[C@@H](NC(=O)OC(C)(C)C)C2)c2sccc2n1)c1ccccn1")
"< 6.30"
>>> test_result("CC(=O)Nc1ccc(CCNC(=O)c2nc(N[C@@H](C)c3cncc(F)c3)nc3ccsc23)cc1")
"< 6.30"
>>> test_result("CC(=O)Nc1ccc(CCNC(=O)c2nc(N[C@@H](C)c3cccnc3)nc3cc(C)sc23)cc1")
"< 6.30"
>>> test_result("C[C@H](Nc1nc(C(=O)N2CC(N)C2)c2sccc2n1)c1cncc(F)c1")
"< 6.30"
>>> test_result("O=C(c1nc(NCc2cncc(F)c2)nc2ccsc12)N1CCCC1")
"< 6.30"

Read the next record carefully.
pIC50 lookup needed for COc1ccc(CNC(=O)c2nc(NCc3cncc(F)c3)nc3ccsc23)cn1 , thanks.
< 6.30
